Test: Aqueous solubility of compound in PBS at pH 7.2
Type: physicochemical
Recorded solubility, one value per entry.
Give the value in µM but do not write µM after it.

Example entries and their recorded answers appear below.
molecule="O=C1CCCN1c1ccc2c(c1)C(O)(C(F)(F)F)c1ccccc1-2 (racemic)" measurement_name=solubility data_value=83
molecule="CNC(=O)Cn1cc(-c2cccc3c2-c2ccccc2C3(O)C(F)(F)F)cn1 (racemic)" measurement_name=solubility data_value=94
molecule="Cn1cc(-c2cccc3c2-c2ccccc2C3(O)C(F)(F)F)cn1 (racemic)" measurement_name=solubility data_value=6.9

// query Which solubility is reported for this molecule? COC(=O)c1cccc2c1-c1ccccc1C2(O)C(F)(F)F (racemic)
// result 83

// query Let us now turn to OC1(C(F)(F)F)c2ccccc2-c2c(-c3cncnc3)cccc21 (racemic)
// result 4.6

// query Let us now turn to CC(C)C1(O)c2ccccc2-c2ncccc21 (racemic)
// result 94

// query Let us now turn to O=C(c1ccc2c(c1)C(O)(C(F)(F)F)c1ccccc1-2)N1CCC1 (racemic)
// result 93

// query Let us now turn to COC(=O)c1ccc2c(c1)C(O)(C(F)(F)F)c1ccccc1-2 (racemic)
// result 45

Origin of the recorded values: ChEMBL document CHEMBL5576073
